- protocol.summary: physchem
- Format: physicochemical
- setup.conditions: pH 6.8, Water solubility (critical soluble concentration), pure water, room temperature, pH 6.8
Peptide text beside a SMILES is read from it.
endpoint: solubility (mM)

(P) O=C(O)[C@H](Cc1ccccc1)NC(=O)[C@H](Cc1ccccc1)NC(=O)[C@@H]1CCCN1 [PFF, reference compound] (H-Pro-Phe-Phe-OH)
(Q) CC(C)C[C@H](NC(=O)[C@@H](N)Cc1ccccc1)C(=O)O [FL, reference compound] (H-Phe-Leu-OH)
[ask] Please indicate which has the smaller reported solubility: P , or Q . Selection: enter the item's label.
[reply] P
(P: 2.6 mM, Q: 28.3 mM)

(a) CC(C)C[C@H](N)C(=O)N[C@@H](Cc1ccccc1)C(=O)O [LF, reference compound] (H-Leu-Phe-OH)
(b) N[C@@H](Cc1ccccc1)C(=O)N[C@@H](Cc1ccccc1)C(=O)N[C@@H](Cc1ccccc1)C(=O)O [FFF, reference compound] (H-Phe-Phe-Phe-OH)
(c) N[C@@H](Cc1ccccc1)C(=O)N[C@@H](Cc1ccccc1)C(=O)O [FF, reference compound] (H-Phe-Phe-OH)
[ask] rank_up(items): orders items by reported solubility in ascending numerical order. Write the labels in rank order as requested.
[reply] b, c, a

(A) NCC(=O)N[C@@H](Cc1ccccc1)C(=O)N[C@@H](Cc1ccccc1)C(=O)O [GFF, reference compound] (H-Gly-Phe-Phe-OH)
(B) C[C@H](NC(=O)[C@H](C)NC(=O)[C@@H](N)Cc1ccccc1)C(=O)O [FAA] (H-Phe-Ala-Ala-OH)
(C) C[C@H](N)C(=O)N[C@@H](Cc1ccccc1)C(=O)N[C@@H](Cc1ccccc1)C(=O)O [AFF, reference compound] (H-Ala-Phe-Phe-OH)
(D) C[C@H](N)C(=O)N[C@@H](Cc1ccccc1)C(=O)N[C@@H](C)C(=O)O [AFA, Ala-Phe-Ala] (H-Ala-Phe-Ala-OH)
[ask] Order the records by solubility, with each subsequent value no larger than the one before. Would you mind listing the labels in the order requested?
[reply] D, C, B, A
(D: 672 mM, C: 98.3 mM, B: 42 mM, A: 14.5 mM)

----------
- protocol.summary: physchem
- Type: physicochemical
- setup.conditions: Water solubility, water, near the boiling point of water
Peptide text beside a SMILES is read from it.
endpoint: solubility (mM)
Give just the number in mM; leave the unit off.

Consider C[C@H](N)C(=O)N[C@@H](Cc1ccccc1)C(=O)N[C@@H](C)C(=O)O [AFA, Ala-Phe-Ala] (H-Ala-Phe-Ala-OH) . Its measured solubility is 710

----------
- protocol.summary: physchem
- Type: physicochemical
- setup.conditions: Water solubility, water, 90°C
Peptide text beside a SMILES is read from it.
endpoint: solubility (mM)
Form entry: value (mM) — number only.

What the record says about C[C@H](N)C(=O)N[C@@H](Cc1ccccc1)C(=O)N[C@@H](C)C(=O)O [AFA, Ala-Phe-Ala] (H-Ala-Phe-Ala-OH) : solubility is 720
